# assay_name: amyloid nucleation score (Sup35N fusion, yeast selection) (log enrichment); library NNK3; higher = more nucleation; inactive = no reads after selection;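 also: zero at mode of non-aggregating sequences after 7 days selection at 30°C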
measured_property: amyloid nucleation score

Illustrative cases are given below, each with its answer.
>>> measurement("RWCYLTEKKFSGLFNL")
"inactive"
>>> measurement("PSFLNSMGS")
"inactive"
>>> measurement("VGGGSFCFKHRLNGGTDGHV")
1.11
>>> measurement("FRAYWLYISALAHQIITMLK")
"inactive"
>>> measurement("LSLFPMGCIYKHRIGLVTAK")
"inactive"

Req: Quick check: amyloid nucleation score of LSINLASSSGVSVLLKGSNL ?
Resp: 0.87

Req: Quick check: amyloid nucleation score of HRRLGRTFFCATLGLHLCDF ?
Resp: inactive

Req: Quick check: amyloid nucleation score of AQAVHAEVVQFILYFGESPL ?
Resp: 2.47

Req: Quick check: amyloid nucleation score of ALSNYVFLEVTLQTWVVIEV ?
Resp: inactive
